Reference for the values: PubChem BioAssay (NCI)

# Tested on: IGROV1 ovarian
# protocol-description: NCI tumour cell line growth inhibition, 48 h; in the data active means GI50 below about 0.43 µM; inactive means the rest
*1 amine or outer side, *2 acyl side, *3 side chain or, on linkers, in order; H or OH if unused. Where a SMILES comes first, the peptide text is derived from it. [ ]: non-standard residue; d: D form. ξ: configuration not given here. X21 = CC[C@@H](C)C(N[*:1])C(=O)[*:2]; ξR = N=C(N)NCCCC(N)C(=O)O; ξI = CCC(C)C(N)C(=O)O; ξL = CC(C)CC(N)C(=O)O; ξK = NCCCCC(N)C(=O)O; ξV = CC(C)C(N)C(=O)O; ξA = CC(N)C(=O)O
# valid calls are T for active, F for inactive; nothing else

Problem: Test call for this compound, please: CCOC(=O)c1cc(C(=O)c2cc(OC)c(OC)c(OC)c2)n2ccccc12
Result: F

Problem: Test call for this compound, please: NC1CCC(N[C@@H]2C[C@H]2c2ccccc2)CC1 (stereo not given in full)
Result: F

Problem: Test call for this compound, please: OCc1ccc(N(CCN2CCCC2)Cc2ccc(F)cc2)cc1Cl
Result: F

Problem: Test call for this compound, please: CCC(C)C1NC(=O)C(CC(C)C)NC(=O)C(C)NC(=O)C(C(C)C)NC(=O)C(CCCCN)NC(=O)C(CC(C)C)NC(=O)C(C(C)C)NC(=O)[C@H](C)NC(=O)C(C(C)CC)NC(=O)C(CCCN=C(N)N)NC(=O)C(CCCCN)NC(=O)C(CCCN=C(N)N)NC(=O)C(CCCCN)NC(=O)C([C@H](C)CC)NC(=O)C(CCCCN)NC1=O (stereo not given in full) (cyclo(A[ξV][ξL][ξK][ξV][ξA][ξL][ξI][ξK][X21][ξK][ξR][ξK][ξR][ξI]))
Result: F

Problem: Test call for this compound, please: CNCCCNCCCN1C(=O)c2ccc3c4c(ccc(c24)C1=O)C(=O)N(CCCNCc1ccccc1OC)C3=O
Result: F

Continuing:
Problem: Test call for this compound, please: OCC(O)C(O)C(O)/C=N/Nc1nc2ccccc2nc1-c1ccccc1 (stereo not given)
Result: F

Problem: Test call for this compound, please: CCCN(CCSSCCNc1nc(N(C)O)nc(N(C)O)n1)c1nc(N(C)O)nc(N(C)O)n1
Result: F

Problem: Test call for this compound, please: C=C1C[C@@]2(C)C(CC[C@]3(C)C2CC=C2C4CC(C)(C)C[C@@H](OC(=O)/C(C)=C\C)[C@]4(C(=O)O)CC[C@]23C)C(C)(C)C1=O (stereo not given in full)
Result: F

Problem: Test call for this compound, please: N#C/C(=C\c1ccc(Br)cc1)n1nnc2ccccc21
Result: T

Problem: Test call for this compound, please: O=C(Nc1ccccc1)Nc1cccc(Oc2nnc(Cl)c3ccccc23)c1
Result: F
